// data source = the supplement of paper PMC11208160

The following sequences are listed with their measured recombinant UMI read abundance (log10) values.
Assay: recombinant UMI read abundance after kanamycin selection (control-corrected) (log10(CPM+1)); higher = more efficient recombination; extreme values may be limits of the assay; sequences stand for … in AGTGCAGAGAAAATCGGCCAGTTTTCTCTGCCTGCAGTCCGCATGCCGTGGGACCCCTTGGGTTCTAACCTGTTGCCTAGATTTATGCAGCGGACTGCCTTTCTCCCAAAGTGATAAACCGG…AGGTTGGTTTCACT; site = the 11-nt donor

Here are 3 sequences together with their reported answers.
Sequence input | Endpoint value
CATTTGCCATGGACCGGTTTTCCCGGTAATCCGTATTTGTG (site CATTTGCCTCA) | 0.302
TAACCCACATGGACCGGTTTTCCCGGTAATCCGTATTTGTG (site TAACCCACTCA) | 0.0264
TTTCTCTCATGGACCGGTTTTCCCGGTAATCCGTATTTGTA (site GTTCTCTCTTA) | 0.297

Any idea what its recombinant UMI read abundance (log10) is? The sequence is GAATGCCCATGGACCGGTTTTCCCGGTAATCCGTATTTGCA (site GAATGCCCTTG)
1.25

Try this sequence next: CACTACTCATGGACCGGTTTTCCCGGTAATCCGTATTTGCC (site CACTACTCTGG)
2.55

###

Assay: recombinant barcode read abundance after kanamycin selection (control-corrected) (log10(CPM+1)); higher = more efficient recombination; sequences stand for … in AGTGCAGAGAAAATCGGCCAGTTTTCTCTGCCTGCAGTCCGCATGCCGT…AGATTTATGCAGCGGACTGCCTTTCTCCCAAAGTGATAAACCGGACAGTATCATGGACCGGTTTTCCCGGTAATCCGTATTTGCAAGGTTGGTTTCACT; site = the 11-nt target
The label depends only on recombinant barcode read abundance (log10): T if it is at least 0.1, F if it is smaller.

Examples with answers:
Sequence input | Assigned class
CTTCGAGCTTGGGTTCTAACCTGTTGCAG (site CTTCGAGCTCT) | T
GCGGTTCCTTGGGTTCTAACCTGTTGCCT (site GCCGCTCCTAG) | T
CTTTGAGCTTGGGTTCTAACCTGTTGCAT (site CTTCGGGCTAT) | F
CATCAGCCTTGGGTTCTAACCTGTTGCCT (site CATGAGCCTAG) | T
GGGACAACTTGGGTTCTAACCTGTTGCCT (site GGGGTAACTAG) | F
TCGAAGCCTTGGGTTCTAACCTGTTGCCT (site TCGAAACCTAG) | F
TAAGCTACTTGGGTTCTAACCTGTTGCTG (site TAAGCTACTCA) | T
TTATGGTCTTGGGTTCTAACCTGTTGCTA (site TCTTGGTCTTA) | T
CAGTGCTCTTGGGTTCTAACCTGTTGCCA (site CAATGCTCTAG) | T
GAGCGCACTTGGGTTCTAACCTGTTGCAG (site GAGCGCACTCC) | T

# bool: recombinant barcode read abundance (log10) of ACTTCACCTTGGGTTCTAACCTGTTGCCT (site ACTTCTGCTAG) >= 0.1
F

###

The following sequences are listed with their measured recombinant UMI read abundance (log10) values.
Test: recombinant UMI read abundance after kanamycin selection (control-corrected) (log10(CPM+1)); higher = more efficient recombination; extreme values may be limits of the assay; sequences stand for … in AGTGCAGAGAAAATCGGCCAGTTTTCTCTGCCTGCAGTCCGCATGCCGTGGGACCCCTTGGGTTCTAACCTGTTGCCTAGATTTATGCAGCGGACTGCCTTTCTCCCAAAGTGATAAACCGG…AGGTTGGTTTCACT; site = the 11-nt donor

Any idea what its recombinant UMI read abundance (log10) is? The sequence is CCATCTACATGGACCGGTTTTCCCGGTAATCCGTATTTGTG (site GCATCTACTCA)
0.00588

Try this sequence next: TGTTCCGCATGGACCGGTTTTCCCGGTAATCCGTATTTGTA (site TGTTCCACTTA)
0.00713

Try this sequence next: CGTTTTGCATGGACCGGTTTTCCCGGTAATCCGTATTTGCT (site CGTTTGGCTAG)
0

Try this sequence next: CCCTTTTCATGGACCGGTTTTCCCGGTAATCCGTATTTGGG (site CCCTTCTCTCC)
0.0124

Try this sequence next: TATTTCCCATGGACCGGTTTTCCCGGTAATCCGTATTTGTG (site TATTTCCCTCA)
0.213

Try this sequence next: TTTCAAACATGGACCGGTTTTCCCGGTAATCCGTATTTGTG (site TTTCAAACTCA)
0.0135

Try this sequence next: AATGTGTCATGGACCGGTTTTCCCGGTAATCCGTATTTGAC (site GATGTGTCTGT)
0

Try this sequence next: TCGTTTACATGGACCGGTTTTCCCGGTAATCCGTATTTGCT (site CCGTTTACTAG)
0

Try this sequence next: CGTCAGACATGGACCGGTTTTCCCGGTAATCCGTATTTGAG (site CGTAAGACTCT)
0.182

###

Assay: recombinant barcode read abundance after kanamycin selection (control-corrected) (log10(CPM+1)); higher = more efficient recombination; sequences stand for … in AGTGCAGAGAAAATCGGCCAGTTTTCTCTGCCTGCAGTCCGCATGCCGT…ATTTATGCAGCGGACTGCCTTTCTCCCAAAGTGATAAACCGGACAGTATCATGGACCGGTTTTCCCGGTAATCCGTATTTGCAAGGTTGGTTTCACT; site = the 11-nt target
Readout kind: recombinant barcode read abundance (log10)
Please give the numeric answer without any surrounding text.

Here are 10 sequences together with their reported answers.
Sequence input | Endpoint value
GGGCGGAACTGGGTTCTAACCTGTTGCGGAG [GGGCGGACTCC_LTGcore_AC_RTGcore_CT] (site GGGCGGACTCC) (LTG core: AC, RTG core: CT) | 0.449
AAACACATCTGGGTTCTAACCTGTTGCCTGA [AAACACACTAG_LTGcore_TC_RTGcore_TC] (site AAACACACTAG) (LTG core: TC, RTG core: TC) | 0.505
AGGCGGGCTTGGGTTCTAACCTGTTGCGGTT [AGGCGGGCTCC_LTGcore_CT_RTGcore_AA] (site AGGCGGGCTCC) (LTG core: CT, RTG core: AA) | 0.0746
GGGCGGAAGTGGGTTCTAACCTGTTGCGGCT [GGGCGGACTCC_LTGcore_AG_RTGcore_AG] (site GGGCGGACTCC) (LTG core: AG, RTG core: AG) | 0.193
AGGCGGGCTTGGGTTCTAACCTGTTGCGGGC [AGGCGGGCTCC_LTGcore_CT_RTGcore_GC] (site AGGCGGGCTCC) (LTG core: CT, RTG core: GC) | 0.249
TCGCGACCTTGGGTTCTAACCTGTTGCCGCA [TCGCGACCTCG_LTGcore_CT_RTGcore_TG] (site TCGCGACCTCG) (LTG core: CT, RTG core: TG) | 0.072
ACGGGACCTTGGGTTCTAACCTGTTGCAGTC [ACGGGACCTCT_LTGcore_CT_RTGcore_GA] (site ACGGGACCTCT) (LTG core: CT, RTG core: GA) | 0.425
TTATAAACTTGGGTTCTAACCTGTTGCCTCC [TTATAAACTAG_LTGcore_CT_RTGcore_GG] (site TTATAAACTAG) (LTG core: CT, RTG core: GG) | 0.179
GGTGCCCCTTGGGTTCTAACCTGTTGCCGTT [GGTGCCCCTCG_LTGcore_CT_RTGcore_AA] (site GGTGCCCCTCG) (LTG core: CT, RTG core: AA) | 0.0623
TAGAGGGGGTGGGTTCTAACCTGTTGCGGAG [TAGAGGGCTCC_LTGcore_GG_RTGcore_CT] (site TAGAGGGCTCC) (LTG core: GG, RTG core: CT) | 0.0671

Any idea what its recombinant barcode read abundance (log10) is? The sequence is GTCGCCCCTTGGGTTCTAACCTGTTGCTATC [GTCGCCCCTTA_LTGcore_CT_RTGcore_GA] (site GTCGCCCCTTA) (LTG core: CT, RTG core: GA)
0.434

###

Experiment: recombinant barcode read abundance after kanamycin selection (control-corrected) (log10(CPM+1)); higher = more efficient recombination; sequences stand for … in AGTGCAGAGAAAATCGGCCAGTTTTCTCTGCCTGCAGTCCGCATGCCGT…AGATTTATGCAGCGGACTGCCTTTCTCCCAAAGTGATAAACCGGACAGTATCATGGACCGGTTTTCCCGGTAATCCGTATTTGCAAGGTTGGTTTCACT; site = the 11-nt target
Readout kind: recombinant barcode read abundance (log10)
Please give the numeric answer without any surrounding text.

Sequence input | Endpoint value
CATGACCCTTGGGTTCTAACCTGTTGCCT (site CATGACCCTAG) | 1.67
ACGCAGTCTTGGGTTCTAACCTGTTGCCT (site ACGCATTCTAG) | 0.129
AAACGCTCTTGGGTTCTAACCTGTTGCCT (site TAACGCTCTAG) | 0.446
CCTCATTCTTGGGTTCTAACCTGTTGCTT (site CCTCACTCTAA) | 0
TACTTAGCTTGGGTTCTAACCTGTTGCCG (site TAGTTACCTCG) | 0.0382

We now examine a further sequence.
Any idea what its recombinant barcode read abundance (log10) is? The sequence is ATACCATCTTGGGTTCTAACCTGTTGCCT (site ATACCATCTAG)
0.031
